Origin of measurements: patent US12258327B2

# TESTED_TARGET: EGFR del19/T790M/C797S (Homo sapiens, UniProt P00533, C797S/DEL746-750/T790M)
# Sequence (P00533 with tags, fused parts or gaps DEL746-750/T790M/C797S): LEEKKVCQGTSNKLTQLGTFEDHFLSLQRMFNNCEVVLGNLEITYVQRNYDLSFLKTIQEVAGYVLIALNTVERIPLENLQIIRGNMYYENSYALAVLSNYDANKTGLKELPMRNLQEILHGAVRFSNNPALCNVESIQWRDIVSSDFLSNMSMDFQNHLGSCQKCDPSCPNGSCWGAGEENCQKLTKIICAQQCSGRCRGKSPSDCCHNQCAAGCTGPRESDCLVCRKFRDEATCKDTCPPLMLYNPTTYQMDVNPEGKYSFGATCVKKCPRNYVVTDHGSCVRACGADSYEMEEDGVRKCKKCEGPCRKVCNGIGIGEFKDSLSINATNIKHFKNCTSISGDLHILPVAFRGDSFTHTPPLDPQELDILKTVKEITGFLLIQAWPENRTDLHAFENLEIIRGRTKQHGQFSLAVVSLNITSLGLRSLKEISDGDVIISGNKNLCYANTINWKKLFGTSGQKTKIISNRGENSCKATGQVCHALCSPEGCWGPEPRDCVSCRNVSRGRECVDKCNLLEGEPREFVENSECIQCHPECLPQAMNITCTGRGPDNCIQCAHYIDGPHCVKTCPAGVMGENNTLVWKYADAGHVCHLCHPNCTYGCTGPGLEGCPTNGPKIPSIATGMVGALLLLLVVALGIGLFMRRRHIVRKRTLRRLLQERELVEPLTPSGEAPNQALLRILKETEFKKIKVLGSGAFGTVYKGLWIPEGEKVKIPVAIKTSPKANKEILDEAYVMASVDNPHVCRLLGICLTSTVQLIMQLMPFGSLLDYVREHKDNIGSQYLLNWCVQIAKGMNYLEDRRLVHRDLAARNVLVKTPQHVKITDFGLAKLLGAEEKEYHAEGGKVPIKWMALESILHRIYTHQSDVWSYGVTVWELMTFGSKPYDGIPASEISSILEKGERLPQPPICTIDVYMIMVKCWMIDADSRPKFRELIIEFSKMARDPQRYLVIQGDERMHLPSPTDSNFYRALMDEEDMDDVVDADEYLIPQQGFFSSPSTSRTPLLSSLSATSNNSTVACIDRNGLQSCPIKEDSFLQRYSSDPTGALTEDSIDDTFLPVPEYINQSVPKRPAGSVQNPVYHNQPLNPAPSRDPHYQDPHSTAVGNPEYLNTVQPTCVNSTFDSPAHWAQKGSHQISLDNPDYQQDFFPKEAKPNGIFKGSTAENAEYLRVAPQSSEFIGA
# ASSAY_DETAILS: Biochemical EGFR kinase assay (Lance Ultra TR-FRET), triple mutant del19/T790M/C797S
# CONDITION_DESCRIPTION: Km ATP; read-out: IC50 del19/T790M/C797S (nM) Km ATP
Note to self: class = bucket of IC50, per low interval = under 0.4 nM, middle interval = from 0.4 nM up to 3 nM, high interval = 3 nM and over

# COMPOUND, CLASS_ASSIGNMENT
rows = [
    ("CC(C)(O)[C@H]1CC[C@@H](Nc2cc(Nc3ccnc(-c4cnn(S(=O)(=O)C5CC5)c4)n3)ncc2-c2cc3n(n2)CCCC3)CC1", "middle interval"),
    ("O=S(=O)(C1CC1)n1cc(-c2nccc(Nc3cc(N[C@H]4CC[C@@H](C(F)F)CC4)c(-c4ccn(C(F)F)n4)cn3)n2)cn1", "high interval"),
    ("O=S(=O)(C1CC1)n1cc(-c2nccc(Nc3cc(N[C@H]4CC[C@@H](F)CC4)c(-c4ccn(C(F)(F)F)n4)cn3)n2)cn1", "high interval"),
    ("CC(C)n1cc(C#Cc2cc(Nc3ccnc(-c4cnn(S(=O)(=O)C5CC5)c4)n3)ncc2-c2cnn(C3CC3)c2)cn1", "high interval"),
]

Dear colleague, I would appreciate it if you could identify the bin for O=S(=O)(C1CC1)n1cc(-c2nccc(Nc3cc(NC4CCC(F)(F)C4)c(-c4ccn(C(F)F)n4)cn3)n2)cn1 (centres unmarked) and reply at your convenience. high interval

Form: Item = "O=S(=O)(C1CC1)n1cc(-c2nccc(Nc3cc(N[C@H]4CC[C@@H](CN5CCC5)CC4)c(-c4ccn(CC(F)(F)F)n4)cn3)n2)cn1" ; Class = ? low interval

---

# TESTED_TARGET: EGFR L858R/T790M/C797S (Homo sapiens, UniProt P00533, C797S/L858R/T790M)
# Sequence (P00533 25-1210 T790M/C797S/L858R): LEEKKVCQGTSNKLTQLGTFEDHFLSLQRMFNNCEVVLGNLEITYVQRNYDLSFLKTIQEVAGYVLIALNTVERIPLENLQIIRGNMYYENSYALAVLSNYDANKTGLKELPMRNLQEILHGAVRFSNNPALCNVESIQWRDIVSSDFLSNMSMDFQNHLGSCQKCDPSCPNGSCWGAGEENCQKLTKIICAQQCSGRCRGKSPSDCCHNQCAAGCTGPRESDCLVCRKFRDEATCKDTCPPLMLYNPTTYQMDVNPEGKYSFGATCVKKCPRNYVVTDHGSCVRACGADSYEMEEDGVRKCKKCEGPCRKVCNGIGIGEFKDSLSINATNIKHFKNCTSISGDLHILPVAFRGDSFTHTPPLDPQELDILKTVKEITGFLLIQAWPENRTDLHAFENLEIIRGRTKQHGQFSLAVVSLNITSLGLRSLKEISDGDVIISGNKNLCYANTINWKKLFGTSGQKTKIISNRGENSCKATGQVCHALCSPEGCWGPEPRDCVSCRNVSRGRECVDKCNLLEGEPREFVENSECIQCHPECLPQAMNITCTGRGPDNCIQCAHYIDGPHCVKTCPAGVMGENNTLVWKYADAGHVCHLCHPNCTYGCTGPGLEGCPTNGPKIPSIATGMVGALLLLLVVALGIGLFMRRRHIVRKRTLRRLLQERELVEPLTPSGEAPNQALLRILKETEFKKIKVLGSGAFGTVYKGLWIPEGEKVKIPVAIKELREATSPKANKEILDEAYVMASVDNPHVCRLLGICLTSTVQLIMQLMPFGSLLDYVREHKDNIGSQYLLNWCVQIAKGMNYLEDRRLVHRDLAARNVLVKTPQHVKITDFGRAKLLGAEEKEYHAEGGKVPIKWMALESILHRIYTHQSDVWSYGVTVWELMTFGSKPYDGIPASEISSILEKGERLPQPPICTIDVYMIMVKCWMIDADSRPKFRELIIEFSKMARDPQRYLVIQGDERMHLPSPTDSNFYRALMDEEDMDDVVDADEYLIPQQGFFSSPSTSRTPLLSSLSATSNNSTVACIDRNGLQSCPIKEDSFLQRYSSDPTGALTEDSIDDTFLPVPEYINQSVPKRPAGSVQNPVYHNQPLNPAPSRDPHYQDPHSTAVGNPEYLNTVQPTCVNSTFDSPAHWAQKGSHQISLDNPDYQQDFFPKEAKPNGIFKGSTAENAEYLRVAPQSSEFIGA
# ASSAY_DETAILS: Biochemical EGFR kinase assay (Lance Ultra TR-FRET), triple mutant L858R/T790M/C797S
# CONDITION_DESCRIPTION: IC50 L858R/T790M/C797S (nM) 100 μM ATP, 100 μM ATP
# Protocol: Biochemical EGFR kinase assays were conducted using Lance Ultra time-resolved fluorescence resonance energy transfer (TR-FRET) technology from Perkin-Elmer. […] Each kinase reactions were incubated at room temperature for 1 hour and then stopped by the addition of 4 μL of stop solution (10 mM EDTA). […] After 60 minutes incubation at room temperature the LANCE signal was measured on an EnVision Multilabel Reader (Perkin-Elmer). […]
Quick rule for you: IC50 under 0.5 nM gets fulfilled, anything else gets not fulfilled.

Look over these answered cases.
# MOLECULE, TESTED_TARGET, CLASS_ASSIGNMENT
rows = [
    ("O=S(=O)(C1CC1)n1cc(-c2nccc(Nc3cc(NC4CCCCC4O)c(-c4ccn(C(F)F)n4)cn3)n2)cn1 (stereo not drawn) [Example 28]", "EGFR L858R/T790M/C797S (Homo sapiens, UniProt P00533, C797S/L858R/T790M)", "not fulfilled"),
    ("Cn1ccc(-c2cnc(Nc3ccnc(-c4cnn(S(=O)(=O)C5CC5)c4)n3)cc2N[C@H]2CC[C@@H](N(C)C)CC2)n1 [Example 124]", "EGFR L858R/T790M/C797S (Homo sapiens, UniProt P00533, C797S/L858R/T790M)", "fulfilled"),
    ("O=S(=O)(C1CC1)n1cc(-c2nccc(Nc3cc(N[C@@H]4CCC[C@H](O)C4)c(-c4csc(C(F)(F)F)n4)cn3)n2)cn1 [Example 96]", "EGFR L858R/T790M/C797S (Homo sapiens, UniProt P00533, C797S/L858R/T790M)", "not fulfilled"),
]

Is IC50 of CN(C)C[C@H]1CC[C@@H](Nc2cc(Nc3ccnc(-c4cnn(S(=O)(=O)C5CC5)c4)n3)ncc2-c2cc3n(n2)CCCC3)CC1 [Example 277] strictly below 0.5 nM? fulfilled

IC50 strictly < 0.5 nM for this molecule? O=S(=O)(C1CC1)n1cc(-c2nccc(Nc3cc(NCC4(CO)COC4)c(-c4ccn(C(F)F)n4)cn3)n2)cn1 [Example 197] fulfilled

---

# TESTED_TARGET: EGFR wildtype (WT) (Homo sapiens, UniProt P00533)
# Sequence (P00533 25-1210): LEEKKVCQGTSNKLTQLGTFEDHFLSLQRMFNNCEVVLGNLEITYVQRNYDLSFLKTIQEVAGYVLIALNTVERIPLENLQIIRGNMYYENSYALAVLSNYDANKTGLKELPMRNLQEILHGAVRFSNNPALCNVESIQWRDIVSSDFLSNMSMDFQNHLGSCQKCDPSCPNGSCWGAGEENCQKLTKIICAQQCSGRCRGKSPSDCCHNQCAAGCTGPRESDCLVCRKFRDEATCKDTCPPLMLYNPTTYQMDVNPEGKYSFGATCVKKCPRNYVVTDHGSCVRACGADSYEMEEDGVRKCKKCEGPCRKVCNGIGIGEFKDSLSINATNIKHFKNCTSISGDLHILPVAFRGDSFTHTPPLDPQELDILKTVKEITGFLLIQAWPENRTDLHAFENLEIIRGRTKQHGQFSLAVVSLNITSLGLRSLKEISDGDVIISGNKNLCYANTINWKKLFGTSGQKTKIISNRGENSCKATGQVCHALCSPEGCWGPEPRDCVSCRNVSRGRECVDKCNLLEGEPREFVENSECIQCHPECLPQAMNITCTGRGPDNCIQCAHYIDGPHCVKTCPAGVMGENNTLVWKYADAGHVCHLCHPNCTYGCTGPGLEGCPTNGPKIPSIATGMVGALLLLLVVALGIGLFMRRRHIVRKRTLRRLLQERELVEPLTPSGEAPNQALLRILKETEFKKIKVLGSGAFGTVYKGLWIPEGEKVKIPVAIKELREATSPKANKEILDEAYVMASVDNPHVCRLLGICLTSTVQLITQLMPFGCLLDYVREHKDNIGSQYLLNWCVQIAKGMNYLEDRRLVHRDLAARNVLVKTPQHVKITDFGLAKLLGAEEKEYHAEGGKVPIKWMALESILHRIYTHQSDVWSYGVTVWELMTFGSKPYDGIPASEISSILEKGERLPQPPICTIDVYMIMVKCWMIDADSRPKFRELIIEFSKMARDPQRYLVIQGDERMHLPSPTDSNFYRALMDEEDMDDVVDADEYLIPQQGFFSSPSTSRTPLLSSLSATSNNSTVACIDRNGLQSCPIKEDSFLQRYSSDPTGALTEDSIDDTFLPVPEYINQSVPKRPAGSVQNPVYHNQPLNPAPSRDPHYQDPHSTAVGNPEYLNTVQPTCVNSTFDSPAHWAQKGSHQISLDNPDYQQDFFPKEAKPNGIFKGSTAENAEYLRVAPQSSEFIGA
# ASSAY_DETAILS: Biochemical EGFR kinase assay (Lance Ultra TR-FRET), wildtype
# CONDITION_DESCRIPTION: Km ATP; read-out: IC50 WT (nM) Km ATP
# Experimental: Biochemical EGFR kinase assays were conducted using Lance Ultra time-resolved fluorescence resonance energy transfer (TR-FRET) technology from Perkin-Elmer. […] Each kinase reactions were incubated at room temperature for 1 hour and then stopped by the addition of 4 μL of stop solution (10 mM EDTA). […] After 60 minutes incubation at room temperature the LANCE signal was measured on an EnVision Multilabel Reader (Perkin-Elmer). […]
Quick reference: IC50 of the listed items.
Just the number please, in nM, no unit attached.

# MOLECULE, TESTED_TARGET, IC50, nM
records = [
    ("O=S(=O)(C1CC1)n1cc(-c2nccc(Nc3cc(NC4CCCCC4O)c(-c4ccn(C(F)F)n4)cn3)n2)cn1 (stereo not shown)", "EGFR wildtype (WT) (Homo sapiens, UniProt P00533)", 241),
]

Looking up "C[C@]1(O)CC[C@@H](Nc2cc(Nc3ccnc(-c4cnn(CC(F)F)c4)n3)ncc2-n2ccc(C(F)F)n2)CC1" , I see its IC50 listed as 4620

The molecule listed as O=S(=O)(C1CC1)n1cc(-c2nccc(Nc3cc(NC4CCC(F)(CO)CC4)c(-c4ccn(C(F)F)n4)cn3)n2)cn1 (stereo not shown) shows IC50 equal to 109

---

In this section we review reported IC50 values for a set of compounds.
# TESTED_TARGET: EGFR del19/T790M/C797S (Homo sapiens, UniProt P00533, C797S/DEL746-750/T790M)
# ASSAY_DETAILS: Biochemical EGFR kinase assay (Lance Ultra TR-FRET), triple mutant del19/T790M/C797S
# CONDITION_DESCRIPTION: IC50 del19/T790M/C797S (nM) 100 μM ATP, 100 μM ATP
Your answer should be a plain number; it is taken to be in nM.

Illustrative cases are given below, each with its answer.
# COMPOUND, QUANTITY_KIND, RECORDED_RESULT
measured = [
    ("Cc1cc(-c2cnc(Nc3ccnc(-c4cnn(S(=O)(=O)C5CC5)c4)n3)cc2N[C@H]2CC[C@@H](CO)CC2)nn1C [Example 280]", "IC50", 1),
    ("CN(C)CC1CCC(Nc2cc(Nc3ccnc(-c4cnn(S(=O)(=O)C5CC5)c4)n3)ncc2-c2ccn(C3COC3)n2)CC1 (stereo not shown) [Example 284]", "IC50", 0.1),
    ("O=S(=O)(C1CC1)n1cc(-c2nccc(Nc3cc(NC[C@H]4C[C@H](O)C4)c(-c4ccn(C(F)F)n4)cn3)n2)cn1 [Example 34]", "IC50", 0.9),
    ("O=S(=O)(C1CC1)n1cc(-c2nccc(Nc3cc(NC[C@H]4CC[C@@H](O)C4)c(-c4ccn(C(F)F)n4)cn3)n2)cn1 [Example 119]", "IC50", 0.4),
    ("Cn1ccc(-c2cnc(Nc3ccnc(-c4cnn(S(=O)(=O)C5CC5)c4)n3)cc2N[C@H]2CC[C@@H](CCO)CC2)n1 [Example 136]", "IC50", 0.9),
    ("CC1(O)CCC(Nc2cc(Nc3ccnc(-c4cnn(C5CCCO5)c4)n3)ncc2-c2ccn(C(F)F)n2)CC1 (stereo not shown) [Example 318]", "IC50", 3),
    ("CS(=O)(=O)c1ccccc1Nc1nccc(Nc2cc(N[C@H]3CC[C@@](C)(O)CC3)c(-c3ccn(C(F)F)n3)cn2)n1 [Example 313]", "IC50", 2.1),
    ("CN(C)CCCn1ccc(-c2cnc(Nc3ccnc(-c4cnn(S(=O)(=O)C5CC5)c4)n3)cc2N[C@H]2CC[C@@H](NCCF)CC2)n1 [Example 301]", "IC50", 0.1),
    ("CN(C)C[C@H]1C[C@@H](CNc2cc(Nc3ccnc(-c4cnn(S(=O)(=O)C5CC5)c4)n3)ncc2-c2ccn(C)n2)C1 [Example 234]", "IC50", 0.1),
    ("C[C@]1(O)CC[C@@H](Nc2cc(Nc3ccnc(-c4cnn(S(=O)(=O)C5CC5)c4)n3)ncc2-c2ccn(C3COC3)n2)CC1 [Example 292]", "IC50", 0.2),
]

Query C[C@]1(O)CC[C@@H](Nc2cc(Nc3ccnc(-c4cnn(CC(F)F)c4)n3)ncc2-c2ccn(C(F)F)n2)CC1 [Example 143] yields IC50 of 0.1

IC50 recorded for this compound, O=S(=O)(C1CC1)n1cc(-c2nccc(Nc3cc(OC4CCC(O)C4)c(-c4ccn(C(F)F)n4)cn3)n2)cn1 (stereo not shown) [Example 67] , is 3.6

The reported value for O=S(=O)(C1CC1)n1cc(-c2nccc(Nc3cc(NCC4CCC(O)C4)c(-c4ccn(C(F)F)n4)cn3)n2)cn1 (stereo not shown) [Example 33] in terms of IC50 is 1

Query CN(C)CCCn1ccc(-c2cnc(Nc3ccnc(-c4cnn(S(=O)(=O)C5CC5)c4)n3)cc2NCC2(CO)COC2)n1 [Example 279] yields IC50 of 0.3

In plain terms, CC(C)(O)[C@H]1CC[C@@H](Nc2cc(Nc3ccnc(-c4cnn(S(=O)(=O)C5CC5)c4)n3)ncc2-c2ccn(C(F)F)n2)CC1 [Example 8] has a documented IC50 of 5.5

Query O=S(=O)(C1CC1)n1cc(-c2nccc(Nc3cc(N[C@H]4CC[C@](O)(C(F)F)CC4)c(-c4ccn(C(F)F)n4)cn3)n2)cn1 [Example 200] yields IC50 of 1
